Reference source for all entries: paper PMC10257182

# System: senescent A549 cells (etoposide-induced)
# Assay: Nuclei count senolytic assay, therapy-induced senescence (TIS) model, senescent cells
# Format: cell-based, human
# Test conditions: Homo sapiens, A549; log (dose) [M] -7.33; Senescent cells; mean; read-out: Mean % Cell Survival
Counter-ions that a name gives are not always drawn.
Readout type: viability at 0.0468 µM

[
  {
    "Molecule": "CC[C@]1(O)C[C@@H]2CN(CCc3c([nH]c4ccccc34)[C@@](C(=O)OC)(c3cc4c(cc3OC)N(C)[C@H]3[C@@](O)(C(=O)OC)[C@H](OC(C)=O)[C@]5(CC)C=CCN6CC[C@]43[C@@H]65)C2)C1 [Vinblastine sulfate, vinblastine sulfate, reference compound]",
    "Result": "99.9%"
  },
  {
    "Molecule": "COc1cc(/C=C/C(=O)O[C@H]2CC[C@]34C[C@]35CC[C@]3(C)[C@@H]([C@H](C)CCC=C(C)C)CC[C@@]3(C)[C@@H]5CC[C@H]4C2(C)C)ccc1O",
    "Result": "126%"
  },
  {
    "Molecule": "O=c1cc(-c2ccc(O)cc2)oc2cc(O)c(O)c(O)c12",
    "Result": "88.6%"
  },
  {
    "Molecule": "Cc1cnc(C(=O)N[C@H]2CCCCC/C=C\\[C@@H]3C[C@@]3(C(=O)NS(=O)(=O)C3CC3)NC(=O)[C@@H]3C[C@@H](Oc4nc5ccccc5c5ccccc45)CN3C2=O)cn1 [Paritaprevir, paritaprevir, reference compound]",
    "Result": "115%"
  },
  {
    "Molecule": "CO[C@H]1C[C@@H]2CC[C@@H](C)[C@@](O)(O2)C(=O)C(=O)N2CCCC[C@H]2C(=O)O[C@H]([C@H](C)C[C@@H]2CC[C@@H](OCCO)[C@H](OC)C2)CC(=O)[C@H](C)/C=C(\\C)[C@@H](O)[C@@H](OC)C(=O)[C@H](C)C[C@H](C)/C=C/C=C/C=C/1C [Everolimus, everolimus, reference compound]",
    "Result": "85.6%"
  }
]

----------
# System: non-senescent control A549 cells
# Assay: Nuclei count senolytic assay, TIS model, non-senescent control cells
# Format: cell-based, human
# Test conditions: Homo sapiens, A549; log (dose) [M] -6.66; Control cells; mean; read-out: Mean % Cell Survival
Where a name gives a salt, the structure may show the parent alone.
# reported viability at 0.219 µM; entries follow

[
  {
    "Compound": "O=c1cc(-c2ccc(O)cc2)oc2cc(O)c(O)c(O)c12",
    "System tested": "non-senescent control A549 cells",
    "viability at 0.219 µM [%]": 109
  },
  {
    "Compound": "COc1cc(O)c2c(=O)cc(-c3ccc(OC)c(-c4c(O)cc(O)c5c(=O)cc(-c6ccc(O)cc6)oc45)c3)oc2c1",
    "System tested": "non-senescent control A549 cells",
    "viability at 0.219 µM [%]": 96.2
  },
  {
    "Compound": "Cc1cc2c(C(C)C)c(O)c(O)c(C=O)c2c(O)c1-c1c(C)cc2c(C(C)C)c(O)c(O)c(C=O)c2c1O",
    "System tested": "non-senescent control A549 cells",
    "viability at 0.219 µM [%]": 94.5
  },
  {
    "Compound": "COC[C@H]1C[C@@H](c2nc(-c3ccc4c(c3)COc3cc5c(ccc6nc([C@@H]7CC[C@H](C)N7C(=O)[C@@H](NC(=O)OC)C(C)C)[nH]c65)cc3-4)c[nH]2)N(C(=O)[C@H](NC(=O)OC)c2ccccc2)C1 [Velpatasvir, velpatasvir, reference compound]",
    "System tested": "non-senescent control A549 cells",
    "viability at 0.219 µM [%]": 28.7
  },
  {
    "Compound": "CO[C@H]1C[C@H](O[C@H]2CC[C@@]3(C)[C@H](CC[C@@H]4[C@@H]3CC[C@]3(C)[C@@H](C5=CC(=O)OC5)[C@@H](OC(C)=O)C[C@]43O)C2)O[C@@H](C)[C@@H]1O",
    "System tested": "non-senescent control A549 cells",
    "viability at 0.219 µM [%]": 2.98
  },
  {
    "Compound": "O=c1c(O)c(-c2ccc(O)cc2)oc2c(O)c(O)cc(O)c12",
    "System tested": "non-senescent control A549 cells",
    "viability at 0.219 µM [%]": 94.4
  },
  {
    "Compound": "O=c1oc2c(O)c(O)cc3c(=O)oc4c(O)c(O)cc1c4c23",
    "System tested": "non-senescent control A549 cells",
    "viability at 0.219 µM [%]": 77.2
  },
  {
    "Compound": "O=c1c(O)c(-c2ccc(O)cc2O)oc2cc(O)cc(O)c12",
    "System tested": "non-senescent control A549 cells",
    "viability at 0.219 µM [%]": 99.4
  },
  {
    "Compound": "CO[C@H]1C[C@@H]2CC[C@@H](C)[C@@](O)(O2)C(=O)C(=O)N2CCCC[C@H]2C(=O)O[C@H]([C@H](C)C[C@@H]2CC[C@H](n3cnnn3)[C@H](OC)C2)CC(=O)[C@H](C)/C=C(\\C)[C@@H](O)[C@@H](OC)C(=O)[C@H](C)C[C@H](C)/C=C/C=C/C=C/1C [Zotarolimus, zotarolimus, reference compound]",
    "System tested": "non-senescent control A549 cells",
    "viability at 0.219 µM [%]": 91
  },
  {
    "Compound": "CO[C@H]1C[C@@H]2CC[C@@H](C)[C@@](O)(O2)C(=O)C(=O)N2CCCC[C@H]2C(=O)O[C@H]([C@H](C)C[C@@H]2CC[C@@H](O)[C@H](OC)C2)CC(=O)[C@H](C)/C=C(\\C)[C@@H](O)[C@@H](OC)C(=O)[C@H](C)C[C@H](C)/C=C/C=C/C=C/1C [Rapamycin, rapamycin, reference compound]",
    "System tested": "non-senescent control A549 cells",
    "viability at 0.219 µM [%]": 122
  },
  {
    "Compound": "CC[C@]1(O)C[C@@H]2CN(CCc3c([nH]c4ccccc34)[C@@](C(=O)OC)(c3cc4c(cc3OC)N(C)[C@H]3[C@@](O)(C(=O)OC)[C@H](OC(C)=O)[C@]5(CC)C=CCN6CC[C@]43[C@@H]65)C2)C1 [Vinblastine sulfate, vinblastine sulfate, reference compound]",
    "System tested": "non-senescent control A549 cells",
    "viability at 0.219 µM [%]": 49.9
  }
]

----------
# System: senescent IMR90 ER:RAS cells (4-OHT-induced)
# Assay: Nuclei count (Hoechst, high content imaging) senolytic assay, oncogene-induced senescence (OIS) model, senescent cells
# Type: cell-based, human
# Test conditions: Homo sapiens, IMR-90, Senescent cells; log (dose) [M] -5.66; individual replicates; SUP FIG 4C; read-out: % Cell Survival

[
  {
    "Compound": "CO[C@H]1C[C@@H]2CC[C@@H](C)[C@@](O)(O2)C(=O)C(=O)N2CCCC[C@H]2C(=O)O[C@H]([C@H](C)C[C@@H]2CC[C@@H](OP(C)(C)=O)[C@H](OC)C2)CC(=O)[C@H](C)/C=C(\\C)[C@@H](O)[C@@H](OC)C(=O)[C@H](C)C[C@H](C)/C=C/C=C/C=C/1C [Ridaforolimus, ridaforolimus, reference compound]",
    "viability at 2.188 µM": "166%"
  },
  {
    "Compound": "COc1cc(/C=C/C(=O)O[C@H]2CC[C@]34C[C@]35CC[C@]3(C)[C@@H]([C@H](C)CCC=C(C)C)CC[C@@]3(C)[C@@H]5CC[C@H]4C2(C)C)ccc1O",
    "viability at 2.188 µM": "137%"
  },
  {
    "Compound": "COC[C@H]1C[C@@H](c2nc(-c3ccc4c(c3)COc3cc5c(ccc6nc([C@@H]7CC[C@H](C)N7C(=O)[C@@H](NC(=O)OC)C(C)C)[nH]c65)cc3-4)c[nH]2)N(C(=O)[C@H](NC(=O)OC)c2ccccc2)C1 [Velpatasvir, velpatasvir, reference compound]",
    "viability at 2.188 µM": "111%"
  },
  {
    "Compound": "O=c1oc2c(O)c(O)cc3c(=O)oc4c(O)c(O)cc1c4c23",
    "viability at 2.188 µM": "108%"
  }
]

----------
# reported Mean % Cell Survival; entries follow
# System: senescent A549 cells (etoposide-induced)
# Assay: Nuclei count senolytic assay, therapy-induced senescence (TIS) model, senescent cells
# Assay type: cell-based, human
# Test conditions: log (dose) [M] -5; Senescent cells; mean

[
  {
    "Compound": "CC(C)=CCc1c(O)cc2oc3cc(O)c(O)c(CC=C(C)C)c3c(=O)c2c1O",
    "System tested": "senescent A549 cells (etoposide-induced)",
    "Units symbol": "%",
    "Mean % Cell Survival": 104.426
  },
  {
    "Compound": "C=Cc1c(C)c2cc3nc(cc4[nH]c(cc5nc(cc1[nH]2)C(C)=C5CCC(=O)O)c(CCC(=O)OC)c4C)[C@@]1(C)C3=CC=C(C(=O)OC)[C@H]1C(=O)OC [Verteporfin, verteporfin, reference compound]",
    "System tested": "senescent A549 cells (etoposide-induced)",
    "Units symbol": "%",
    "Mean % Cell Survival": 118.472
  },
  {
    "Compound": "CO[C@H]1C[C@H](O[C@H]2CC[C@]3(C)[C@H]4CC[C@]5(C)[C@@H](C6=CC(=O)OC6)CC[C@]5(O)[C@@H]4CC[C@]3(O)C2)O[C@H](C)[C@H]1O[C@@H]1O[C@H](CO)[C@@H](O)[C@H](O)[C@H]1O",
    "System tested": "senescent A549 cells (etoposide-induced)",
    "Units symbol": "%",
    "Mean % Cell Survival": 2.656
  },
  {
    "Compound": "Cc1c(NC(=O)OC[C@@H]2COCCN2)cn2ncnc(Nc3ccc4c(cnn4Cc4cccc(F)c4)c3)c12.Cl.Cl [BMS 599626 2HCL, BMS 599626 dihydrochloride]",
    "System tested": "senescent A549 cells (etoposide-induced)",
    "Units symbol": "%",
    "Mean % Cell Survival": 90.7857
  }
]
